MEASUREMENT NAME: melting point

{"columns": ["COMPOUND", "EXPERIMENTAL VALUE"],
 "data": [
  ["CCc1cccc(CC(=O)O)c1OCCCc1cc(OC(C)C)nn1Cc1ccc(Cl)cc1Cl [Example 29]", "98 to 99 °C"],
  ["COCOc1ccc(CCCOc2nn(C)cc2CC(=O)O)c(Oc2ncc(C(F)(F)F)cc2Cl)c1 [Example 111]", "122 to 123 °C"],
  ["CCn1nc(OCCCc2ccc(OC(C)C)cc2Oc2ncc(C(F)(F)F)cc2Cl)cc1CCC(=O)O [Example 141]", "73 to 74 °C"],
  ["CC(C)Oc1cc(CCCOc2c(CC(=O)O)ccc3ccccc23)n(Cc2ccc(Cl)cc2Cl)n1 [Example 87]", "96 to 98 °C"]
]}

---

TARGET DESC: PPARδ-RXRα heterodimer (Homo sapiens)
Sequence (Q03181 1-441): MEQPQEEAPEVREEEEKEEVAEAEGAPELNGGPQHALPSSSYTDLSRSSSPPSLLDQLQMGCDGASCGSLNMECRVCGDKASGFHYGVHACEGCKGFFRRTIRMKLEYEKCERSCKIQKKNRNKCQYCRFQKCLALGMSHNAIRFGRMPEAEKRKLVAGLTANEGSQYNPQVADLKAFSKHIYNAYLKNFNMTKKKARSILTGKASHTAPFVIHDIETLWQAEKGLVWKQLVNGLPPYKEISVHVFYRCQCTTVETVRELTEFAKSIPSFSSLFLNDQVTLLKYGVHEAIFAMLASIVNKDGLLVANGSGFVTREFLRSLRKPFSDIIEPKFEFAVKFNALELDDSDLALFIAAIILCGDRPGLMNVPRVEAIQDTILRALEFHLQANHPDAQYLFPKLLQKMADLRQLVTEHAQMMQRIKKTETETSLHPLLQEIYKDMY
Sequence (P19793 1-462 partner): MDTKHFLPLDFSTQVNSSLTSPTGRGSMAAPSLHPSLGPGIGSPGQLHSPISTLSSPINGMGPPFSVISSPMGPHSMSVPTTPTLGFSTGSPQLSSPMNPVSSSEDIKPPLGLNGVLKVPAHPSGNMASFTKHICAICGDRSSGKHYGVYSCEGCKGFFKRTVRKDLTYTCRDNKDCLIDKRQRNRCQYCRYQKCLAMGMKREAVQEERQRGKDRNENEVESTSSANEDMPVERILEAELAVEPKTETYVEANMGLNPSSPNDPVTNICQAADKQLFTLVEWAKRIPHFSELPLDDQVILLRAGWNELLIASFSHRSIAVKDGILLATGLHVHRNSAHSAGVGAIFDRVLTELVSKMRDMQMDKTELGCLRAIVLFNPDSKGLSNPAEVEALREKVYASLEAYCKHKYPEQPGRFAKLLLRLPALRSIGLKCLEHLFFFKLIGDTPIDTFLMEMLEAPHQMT
TEST NAME: PPARδ-RXRα heterodimer ligand activity (luciferase reporter)
CONDITION DETAILS: transformant of Reference Example 9a of WO03/099793, 36-48 hr, concentration showing 50% of the maximum induction rate
pEC50: −log10 of the molar value.
Given measured pEC50, output 1 if it is greater than or equal to 8 and -1 if not.

{"columns": ["STRUCTURE", "CLASS LABEL"],
 "data": [
  ["COc1cccc(CC(=O)O)c1OCCCc1cc(OC(C)C)nn1Cc1ccc(F)cc1Cl", -1],
  ["COc1cccc(CC(=O)O)c1OCCCc1ccc(OC(C)C)cc1Oc1ncc(C(F)(F)F)cc1Cl", 1],
  ["CC(C)Oc1ccc(CCCOc2cc(CCC(=O)O)n(-c3ccccc3)n2)c(OCc2ccc(C(F)(F)F)cc2)c1", 1],
  ["CC(C)Oc1ccc(CCCOc2cc(CCC(=O)O)n(-c3ccccc3)n2)c(Oc2ncc(Cl)cc2Cl)c1", 1],
  ["CCCOc1ccc(CCCOc2nn(Cc3ccccc3)cc2CC(=O)O)c(Oc2ncc(C(F)(F)F)cc2Cl)c1", -1],
  ["COc1cccc(CC(=O)O)c1OCCCc1ccc(Oc2ccc(C(F)(F)F)cn2)cc1OC(C)C", -1],
  ["COCCOc1ccc(CCCOc2cc(CCC(=O)O)n(-c3ccccc3)n2)c(Oc2ncc(C(F)(F)F)cc2Cl)c1", 1],
  ["COCOc1ccc(CCCOc2nn(C)cc2CC(=O)O)c(Oc2ncc(C(F)(F)F)cc2Cl)c1", -1],
  ["CCCOc1cc(Oc2ccc(C(F)(F)F)cn2)ccc1CCCOc1c(CC(=O)O)cccc1OC", -1],
  ["CCn1cc(CC(=O)O)c(OCCCc2ccc(OC(C)C)cc2Oc2ncc(Cl)cc2Cl)n1", -1],
  ["COc1cccc(CC(=O)O)c1OCCCc1cc(OC(C)C)nn1Cc1ccc(C(F)(F)F)cc1Cl", 1]
]}
